- System: immortalized murine embryonic fibroblasts (Mef)
- Protocol: Pooled negative selection RNAi screening (deep sequencing)
- Type: cell-based
- Cond: deep sequencing reads, on dox compared to initial representation
Test Readout: Fold depletion in Mef (Fold)
One number for each entry, in Fold.

Ncf1.2370: shRNA, SEQ ID NO: 150 (nucleic acid) TGCTGTTGACAGTGAGCGCCAGAAGATCAATGCACATAAATAGTGAAGCCACAGATGTATTTATGTGCATTGATCTTCTGTTGCCTACTGCCTCGGA: 2.33

Dear colleague, could you send me Fold depletion in Mef for each of the items below? Thanks.
1. Atp6v0d1.481: shRNA, SEQ ID NO: 93 (nucleic acid) TGCTGTTGACAGTGAGCGACACCAGCGTTCAATAGCTGAATAGTGAAGCCACAGATGTATTCAGCTATTGAACGCTGGTGCTGCCTACTGCCTCGGA
2. Gart.2470: shRNA, SEQ ID NO: 126 (nucleic acid) TGCTGTTGACAGTGAGCGCAAGAATCTGATTGAAACCATATAGTGAAGCCACAGATGTATATGGTTTCAATCAGATTCTTATGCCTACTGCCTCGGA
3. Centa1.1387: shRNA, SEQ ID NO: 105 (nucleic acid) TGCTGTTGACAGTGAGCGCCAGAACCTCATTAAAGTTGAATAGTGAAGCCACAGATGTATTCAACTTTAATGAGGTTCTGATGCCTACTGCCTCGGA
4. Pcna.566: shRNA, SEQ ID NO: 160 (nucleic acid) TGCTGTTGACAGTGAGCGATCGGGTGAATTTGCACGTATATAGTGAAGCCACAGATGTATATACGTGCAAATTCACCCGACTGCCTACTGCCTCGGA

Outgoing:
1. 1.90
2. 0.67
3. 0.77
4. 6.15

Dear colleague, could you send me Fold depletion in Mef for each of the items below? Thanks.
1. Nrg4.1358: shRNA, SEQ ID NO: 153 (nucleic acid) TGCTGTTGACAGTGAGCGCCAGACATGTTGAAGTGAATAATAGTGAAGCCACAGATGTATTATTCACTTCAACATGTCTGTTGCCTACTGCCTCGGA
2. Lin28.2186: neutral control shRNA, SEQ ID NO: 199 (nucleic acid) TGCTGTTGACAGTGAGCGAATGGTTGATAGCTAAAGGAAATAGTGAAGCCACAGATGTATTTCCTTTAGCTATCAACCATCTGCCTACTGCCTCGGA
3. Htatip2.575: shRNA, SEQ ID NO: 133 (nucleic acid) TGCTGTTGACAGTGAGCGACAGCAGTTTCTTATACCTACATAGTGAAGCCACAGATGTATGTAGGTATAAGAAACTGCTGGTGCCTACTGCCTCGGA
4. Syt17.721: shRNA, SEQ ID NO: 184 (nucleic acid) TGCTGTTGACAGTGAGCGCCGAGGAGATCATGTCCAAGTATAGTGAAGCCACAGATGTATACTTGGACATGATCTCCTCGTTGCCTACTGCCTCGGA
5. Adam23.5211: shRNA, SEQ ID NO: 89 (nucleic acid) TGCTGTTGACAGTGAGCGCTACGACCACGTCAGTTACAAATAGTGAAGCCACAGATGTATTTGTAACTGACGTGGTCGTATTGCCTACTGCCTCGGA

Outgoing:
1: 0.54; 2: 1.55; 3: 1.08; 4: 0.86; 5: 0.30
